- System: SUDHL10
- assay_protocol: Induction of cytotoxicity (CellTiter-Glo, 5 h), SUDHL10
- condition_notes: read-out: Cytotox SUDHL10 [M] (median); SUDHL10 cells, cytotoxicity induction, CellTiter-Glo, 5 h incubation, median
quantity: IC50 (M)
Please state the figure in M; there is no need to write the unit.

Here are 5 compounds together with their reported answers.
CN1CCCn2c(C(=O)O)c(CCCOc3cccc4ccccc34)c3cccc(c32)-c2c(COc3ccc(N4CCOCC4)cc3)nn(C)c2C1 (single isomer, unassigned) | 1.14e-05
CC(C)OCc1nn(C)c2c1-c1cccc3c(CCCOc4cccc5ccccc45)c(C(=O)O)n(c13)CCCN(C)C2 (single isomer, unassigned) | 1.98e-05
CCc1c2c(nn1C)CN(C)CCCn1c(C(=O)O)c(CCCOc3cccc4ccccc34)c3ccc(C)c-2c31 (single isomer, unassigned; enantiomer 2) [Example 146] | 2.67e-05
Cc1c2c(nn1CCN1CCOCC1)COCCCCn1c(C(=O)O)c(CCCOc3cccc4ccccc34)c3cccc-2c31 (single isomer, unassigned; enantiomer 1) [Example 054] | 4.68e-06
Cc1c2c(nn1C)CCCCCCn1c(C(=O)O)c(CCCOc3cccc4ccccc34)c3cccc-2c31 (single isomer, unassigned; enantiomer 1) [Example 191] | 5.01e-06

Proceeding to the next compound to report its IC50.
Dear colleague, I am looking for the recorded IC50 of the following compound: CN(C)S(=O)(=O)N1CCN(c2ccc(OCc3nn(C)c4c3-c3cccc5c(CCCOc6cccc7ccccc67)c(C(=O)O)n(c35)CCCCOC4)cc2)CC1 (single isomer, unassigned; enantiomer 2) [Example 1-20]
3.06e-06
